Values were extracted from patent US11214803B2.

# System: Yap1 mRNA
# PROTOCOL_DETAILS: Dose-dependent inhibition of human Yap1 in A-431 cells (Example 6, 5,000 cells per well, RTS4814)
# Format: cell-based
# ASSAY_SETUP: Table 53; A-431 cells, free uptake, 1333 nM, approximately 48 hours, RTS4814
Strand notation (5' to 3'): a small letter for the sugar, then the base; units joined by * are phosphorothioate-linked, units joined directly phosphodiester-linked; [ ] holds rarer units or linkages, { } end groups; capitals alone tell only the bases. k = constrained ethyl (cEt); [5mC] = 5-methylcytosine; d = 2'-deoxy (DNA)
Each record gets a class by % UTC 1333 nM: 0 = under 60 % UTC, 1 = from 60 % UTC up to 70 % UTC, 2 = 70 % UTC and over

- 715479 (kA*kA*kA*d[5mC]*d[5mC]*dA*dT*dT*dA*dT*dT*dA*d[5mC]*kT*k[5mC]*k[5mC]; antisense) [compound 715479]: 2
- 715555 (kG*kT*kT*dA*dT*dT*d[5mC]*dA*dG*d[5mC]*dA*dG*d[5mC]*kT*kT*kA; antisense) [compound 715555]: 1
- 715434 (kT*k[5mC]*kT*dT*dG*dT*dT*d[5mC]*dT*dT*dA*dT*dG*kG*kT*kT; antisense) [compound 715434]: 1
- 715483 (k[5mC]*kT*k[5mC]*dT*dT*dT*dG*dG*dA*dA*dA*d[5mC]*d[5mC]*kA*kT*kT) [compound 715483]: 0
- 715433 (kT*kG*kT*dT*d[5mC]*dT*dT*dA*dT*dG*dG*dT*dT*kT*kA*kT; antisense) [compound 715433]: 1
- 715473 (kT*k[5mC]*kT*dT*dT*dA*dT*d[5mC]*dT*dA*dG*d[5mC]*dT*kT*kG*kG; antisense) [compound 715473]: 0
- 715490 (k[5mC]*k[5mC]*kA*dA*d[5mC]*dT*dA*dT*dT*dA*d[5mC]*dT*dT*k[5mC]*kA*kT; antisense) [compound 715490]: 2
- 715523 (kA*kT*k[5mC]*dA*dG*dT*dA*d[5mC]*dT*dG*dG*d[5mC]*d[5mC]*kT*kA*kT; antisense) [compound 715523]: 2
- 715577 (kG*k[5mC]*kA*dT*dT*d[5mC]*dA*d[5mC]*dA*dG*dA*dG*dT*kT*kA*kA; antisense) [compound 715577]: 2
- 715423 (k[5mC]*k[5mC]*kA*dT*dG*dT*dT*dG*dT*dT*dG*dT*d[5mC]*kT*kG*kA; antisense) [compound 715423]: 2

# bin label for 715480 (kG*kG*kA*dA*dA*d[5mC]*d[5mC]*dA*dT*dT*dA*dT*dT*kA*k[5mC]*kT; antisense) [compound 715480]
1

# bin label for 715508 (k[5mC]*kT*kG*dT*dG*d[5mC]*dT*dG*dG*dG*dA*dT*dT*kG*kA*kT; antisense) [compound 715508]
1

# bin label for 715486 (kT*kA*k[5mC]*dT*dT*d[5mC]*dA*dT*dA*dG*d[5mC]*dT*dT*kA*kT*kA; antisense) [compound 715486]
2

# bin label for 715500 (kA*kA*kG*d[5mC]*d[5mC]*dT*dT*dA*dG*dA*dG*dT*d[5mC]*kA*kA*kT; antisense) [compound 715500]
1

# bin label for 715478 (kA*k[5mC]*k[5mC]*dA*dT*dT*dA*dT*dT*dA*d[5mC]*dT*d[5mC]*k[5mC]*kT*kG; antisense) [compound 715478]
0

# bin label for 715487 (kA*kT*kT*dA*d[5mC]*dT*dT*d[5mC]*dA*dT*dA*dG*d[5mC]*kT*kT*kA) [compound 715487]
0

# bin label for 715415 (k[5mC]*kG*kA*dA*d[5mC]*dA*dT*dG*d[5mC]*dT*dG*dT*dG*kG*kA*kG; antisense) [compound 715415]
0
